Every entry's value here was drawn from patent US20230058623A1.

The entries below come with measured pest or weed control at 1 µg/cm2, 100 g/ha values attached.
System: Rhipicephalus (Boophilus) microplus larvae (strain Parkhurst, resistant against synthetic pyrethroids)
Assay: Rhipicephalus (Boophilus) microplus in-vitro contact test, larval cattle tick
Assay type: in vivo
Conditions: application rate 1 μg/cm^2 (=100 g/ha), after 48 hours, read-out: activity (efficacy: larvae dead or moribund)
measure: pest or weed control at 1 µg/cm2, 100 g/ha (%)

# molecule, endpoint_value
rows = [
    ("C[C@H](NC(=O)c1cc(Cl)cc(C(F)(F)F)c1)c1ncnn1-c1ccc(C(=O)N2CCOC[C@H]2C)cn1 [Example I-33]", 100),
    ("CC1CCN(C(=O)c2ccc(-n3ncnc3[C@H](C)NC(=O)c3cc(C(F)(F)F)cc(C(F)(F)F)c3)nc2)CC1 [Example I-73]", 100),
    ("Cc1nc([C@H](C)NC(=O)c2cc(C(F)(F)F)cc(C(F)(F)F)c2)n(-c2ccc(C(=O)N3CCOCC3c3ccnn3C)cn2)n1 (some centres unmarked) [Example I-101]", 80),
    ("CC(NC(=O)c1cc(Br)cc(Br)c1)c1nc(Br)nn1-c1ccc(C(=O)N2CCOCC2)cn1 (centres unmarked) [Example I-85]", 100),
    ("C[C@@H]1CN(C(=O)c2ccc(-n3ncnc3[C@H](C)NC(=O)c3cc(OC(F)(F)F)cc(C4CC4)c3)nc2)C[C@H](C)O1 [Example I-114]", 100),
    ("Cc1nc([C@H](C)NC(=O)c2cc(Cl)cc(C(F)(F)F)c2)n(-c2ccc(C(=O)N3CC(F)C3)cn2)n1 [Example I-20]", 90),
    ("CC(NC(=O)c1cc(Br)cc(Br)c1)c1nc(Cl)nn1-c1ccc(C(=O)N2CCOCC2)cn1 (racemic) [Example I-87]", 100),
    ("C[C@H](NC(=O)c1cc(Cl)cc(C(F)(F)F)c1)c1ncnn1-c1ccc(C(=O)N2CCS(=O)(=O)CC2)cn1 [Example I-35]", 100),
    ("C[C@H](NC(=O)c1cc(C(F)(F)F)cc(C(F)(F)F)c1)c1ncnn1-c1ccc(C(=O)N2CCOCC2c2ccnn2C)cn1 (some centres unmarked) [Example I-100]", 90),
    ("COC1CN(C(=O)c2ccc(-n3nc(C)nc3[C@H](C)NC(=O)c3cc(Cl)cc(C(F)(F)F)c3)nc2)C1 [Example I-24]", 100),
    ("Cc1nc([C@H](C)NC(=O)c2cc(C(F)(F)F)cc(C(F)(F)F)c2)n(-c2ccc(C(=O)N3CC(C)(C)OC(C)(C)C3)cn2)n1 [Example I-78]", 100),
    ("COC1CCCN(C(=O)c2ccc(-n3ncnc3[C@H](C)NC(=O)c3cc(C(F)(F)F)cc(C(F)(F)F)c3)nc2)C1 (some centres unmarked) [Example I-8]", 100),
    ("C[C@H](NC(=O)c1cc(Br)cc(Br)c1)c1ncnn1-c1ccc(N2CCOCC2)cn1 [Example I-103]", 90),
    ("Cc1nc([C@H](C)NC(=O)c2cc(Cl)cc(C(F)(F)F)c2)n(-c2ccc(C(=O)N3CCC3)cn2)n1 [Example I-23]", 90),
]
